Entries and their IC50 values follow.
Tested on: UniProtKB P43116
Sequence (P43116 whole entry): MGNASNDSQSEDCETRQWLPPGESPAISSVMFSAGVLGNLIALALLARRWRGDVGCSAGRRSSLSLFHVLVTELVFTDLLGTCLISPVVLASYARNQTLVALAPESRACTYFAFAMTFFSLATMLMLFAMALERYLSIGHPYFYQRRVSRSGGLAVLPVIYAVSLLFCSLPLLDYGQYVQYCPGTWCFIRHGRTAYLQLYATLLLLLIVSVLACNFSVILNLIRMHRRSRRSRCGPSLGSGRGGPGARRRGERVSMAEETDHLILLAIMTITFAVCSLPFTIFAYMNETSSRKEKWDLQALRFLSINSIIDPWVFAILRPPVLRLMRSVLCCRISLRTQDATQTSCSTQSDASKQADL
Protocol text: hEP2 b-arrestin assay (PathHunter HEK 293 PTGER2 b-arrestin cells)
Condition info: antagonistic activity, beta-arrestin assay; read-out: hEP2 b-arr IC50
Experimental: Plate is pre-incubated 15 minutes at 37° C. Then five microliters of PGE2 (final conc. 5 μM) are transferred into the assay plate. Plate is incubated 120 minutes at 37° C. (each concentration is measured in duplicate)
Observation type: IC50 (nM)

>>> readout_value("CCc1cc(-c2cc(NCCc3ccc4c(c3C)OCCO4)ncn2)ccc1CC(=O)O [Example 513]")
158
>>> readout_value("CCCc1cc(-c2cc(NCCc3cc(F)c4sccc4c3)ncn2)ccc1C1(C(=O)O)CC1 [Example 557]")
994
>>> readout_value("CCOc1cc(-c2cc(NCCc3cc4ccsc4cc3OC)ncn2)ccc1CC(=O)O [Ex 118]")
34
>>> readout_value("CSc1cc(-c2cc(NCCc3ccc4ccoc4c3)ncn2)ccc1C(=O)O [Ex 250]")
112
>>> readout_value("CCOc1cc(-c2cc(NCCc3c(OC)cc4c(c3C)OCCO4)ncn2)ccc1C(=O)O [Example 395]")
4
>>> readout_value("O=C(O)c1coc2cc(-c3cc(NCCc4cc(F)c5sccc5c4)ncn3)ccc12 [Example 549]")
560
>>> readout_value("CCCc1cc(-c2cc(NCCc3cc(C)c4sccc4c3)ncn2)ccc1C(=O)O [Example 478]")
788
